Reference for the values: paper PMC7127590

Tested on: HeLa cells
run_description: cytotoxicity in uninfected HeLa cells
Assay type: cell-based
stated_conditions: HeLa cell cultures, microscopically detectable alteration of cell morphology
measurement_label: Cytotoxicity Minimum cytotoxic conc.

Please review the entries below; each comes with its answer.
-- ask Looking for the measured Cytotoxicity Minimum cytotoxic conc. of COc1cc(OC)cc(C(=O)N/N=C/c2ccccc2Cl)c1 [Compound 19] , can you help?
-- reply 100 µg/mL

-- ask Requested read-out: Cytotoxicity Minimum cytotoxic conc.. Entry: COc1cc(OC)cc(C(=O)N/N=C/c2ccccc2)c1 [Compound 9]
-- reply 100 µg/mL

-- ask Please give the measured Cytotoxicity Minimum cytotoxic conc. for this compound: NC(=O)c1ncn([C@@H]2O[C@H](CO)[C@@H](O)[C@H]2O)n1 [Ribavirin, reference compound]
-- reply >250 µM

Could you now consider this next compound?
-- ask Would you mind telling me what Cytotoxicity Minimum cytotoxic conc. value was observed for Nc1ncnc2c1ncn2C[C@H](O)CO [(S)-DHPA, reference compound] ?
-- reply >250 µM
